Recorded values, source patent US20230263822A1.

Assay: Hematology assays in cynomolgus monkeys (Example 45)
Assay type: in vivo
Conditions: day 43; escalating dose regimen

substance: ISIS 416858: MOE gapmer, nucleobases 1275 to 1318 of SEQ ID NO: 1 (Table 8) (antisense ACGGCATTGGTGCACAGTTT; MOE gapmer, wing and gap sizes not given here)
WBC count: 11000 µL⁻¹
//
substance: ISIS 416864: MOE gapmer, nucleobases 1275 to 1318 of SEQ ID NO: 1 (Table 8) (antisense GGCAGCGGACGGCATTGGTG; MOE gapmer, wing and gap sizes not given here)
WBC count: 10000 µL⁻¹
//
substance: ISIS 417002: MOE gapmer, nucleobases 1275 to 1318 of SEQ ID NO: 1 (Table 8) (antisense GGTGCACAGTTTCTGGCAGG; MOE gapmer, wing and gap sizes not given here)
WBC count: 10000 µL⁻¹
